System: EPHA1
Conditions: concentration: 1 μM, replicates: in singlicate; n = 1;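 also: KINOMEscan kinase panel screen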
MEASURED PROPERTY: %Inh (%)
The reply should contain only the number, in %.

[[record]]
input_smiles = "COc1ccc(COc2cc(-n3cnc4ccccc43)sc2C(N)=O)cc1"
tested_system = "EPHA1"
measured_property = "%Inh"
reading = 0

[[record]]
input_smiles = "COc1cc2c(cc1OC[C@@H](O)CO)ncc1c3ccc(C#N)cc3[nH]c21"
tested_system = "EPHA1"
measured_property = "%Inh"
reading = 4


For the next question, use this compound.
Which measured %Inh value corresponds to `Fc1ccc(-c2ncn(CCCN3CCOCC3)c2-c2cccnc2)cc1` ?
0

====

System: CSK
Conditions: concentration: 1 μM, replicates: in singlicate; n = 1
MEASURED PROPERTY: %Inh (%)
The reply should contain only the number, in %.

The following molecules have reported results that may help.
[[record]]
molecule = "c1ccc(-c2cc(-c3c[nH]nc3-c3ccccn3)ccn2)cc1"
measured_property = "%Inh"
units_symbol = "%"
reading = 0

[[record]]
molecule = "c1ccc(-c2n[nH]cc2-c2ccnc3ccccc23)nc1"
measured_property = "%Inh"
units_symbol = "%"
reading = 0

[[record]]
molecule = "Fc1ccc(-c2ncn(CCCN3CCOCC3)c2-c2cccnc2)cc1"
measured_property = "%Inh"
units_symbol = "%"
reading = 0

[[record]]
molecule = "O=C1Cc2cc(Nc3nc(NCc4cccc(S(=O)(=O)C(F)(F)F)c4)ncc3C(F)(F)F)ccc2N1"
measured_property = "%Inh"
units_symbol = "%"
reading = 3

[[record]]
molecule = "O=C(NCCNc1ccnc(Nc2ccc(F)cc2)n1)Nc1ccccc1F"
measured_property = "%Inh"
units_symbol = "%"
reading = 0


Which measured %Inh value corresponds to `Fc1ccc(-c2ncn(CCCN3CCOCC3)c2-c2ccccn2)cc1` ?
0

Same lookup for `O=C(NCCNc1ccnc(Nc2ccc(F)cc2)n1)c1cc2ccccc2s1` , please.
0

Same lookup for COc1ccc(Nc2nccc(N3CCC(NC(=O)Nc4cccc(C(C)=O)c4)C3)n2)cc1 (stereo not shown) , please.
0

Same lookup for `Cc1c2ccc(N(C)c3ccnc(Nc4cccc(S(N)(=O)=O)c4)n3)cc2nn1Cc1ccccc1.Cl.Cl` , please.
9

Same lookup for `CCn1cnc2c(N)ncnc21` , please.
0

====

Recorded %Inh by entry
System: MAP3K2
Conditions: concentration: 1 μM, replicates: in singlicate; n = 1
The reply should contain only the number, in %.

[[record]]
compound = "Cn1cc(-c2ccc3c(c2)CCN3C(=O)Cc2ccccc2Cl)c2c(N)ncnc21"
measured_property = "%Inh"
reading = 91.1

[[record]]
compound = "O=c1cc(N2CCOCC2)nc2n(Cc3cccc(F)c3)ccn12"
measured_property = "%Inh"
reading = 0

[[record]]
compound = "CN(C(=O)c1ccc(-c2cc(-c3c[nH]nc3-c3ccccn3)ccn2)cc1)C1CCOCC1"
measured_property = "%Inh"
reading = 0

[[record]]
compound = "CNc1ncnc2[nH]ncc12"
measured_property = "%Inh"
reading = 14

[[record]]
compound = "Cl.Nc1ncnc2occ(-c3ccc(NC(=O)Nc4cc(C(F)(F)F)ccc4F)cc3)c12"
measured_property = "%Inh"
reading = 8


%Inh of `CN1c2ccc(NCc3ccc(F)cc3)cc2-c2c(cnn2C)S1(=O)=O` on MAP3K2?
0

Same lookup for `Cc1cccc(Cn2ccn3c(=O)cc(N4CCOCC4)nc23)c1` , please.
8

Same lookup for `O=C1NC(=O)C(N2CCc3ccccc32)=C1c1cccc(Cl)c1` , please.
0

Same lookup for COc1cc(Nc2nccc(N3CCC(NC(=O)c4cccc(NC(C)=O)c4)C3)n2)cc(OC)c1OC (stereo not drawn) , please.
10

====

Tested on: GRK4
Conditions: concentration: 1 μM, replicates: in singlicate; n = 1
MEASURED PROPERTY: %Inh (%)
The reply should contain only the number, in %.

Which measured %Inh value corresponds to `O=C1Cc2cc(Nc3nc(NCc4cccc(S(=O)(=O)C(F)(F)F)c4)ncc3C(F)(F)F)ccc2N1` ?
8

Same lookup for `c1ccc(-c2cc(-c3c[nH]nc3-c3ccccn3)ccn2)cc1` , please.
0

Same lookup for `Cn1ccc2ncnc(Oc3ccc(NC(=O)Nc4ccncc4)c(Cl)c3)c21` , please.
19

Same lookup for `COc1cc2c(cc1OCCN1CCN(C)CC1)ncc1c3ccc(C#N)cc3[nH]c21` , please.
0

Same lookup for `Nc1nc(-c2ccc3c(N)n[nH]c3c2)cc(N2CCCC2)n1` , please.
0

Same lookup for `Cl.Nc1ncnc2occ(-c3ccc(NC(=O)Nc4cc(C(F)(F)F)ccc4F)cc3)c12` , please.
0

Same lookup for `CCc1nc(-c2cccc(C)c2)c(-c2ccnc(NCc3ccccc3)c2)s1` , please.
9

Same lookup for `O=C(NOCC1CC1)c1ccc(F)c(F)c1Nc1ccc(I)cc1Cl` , please.
0

====

Tested on: CAMK2B
Settings: concentration: 1 μM, replicates: in singlicate; n = 1
MEASURED PROPERTY: %Inh
Please answer using the number first and the unit second.

The following molecules have reported results that may help.
[[record]]
molecule = "CN(C(=O)c1ccc(-c2cc(-c3c[nH]nc3-c3ccccn3)ccn2)cc1)C1CCOCC1"
reading = "0%"

[[record]]
molecule = "O=C(NOCC1CC1)c1ccc(F)c(F)c1Nc1ccc(I)cc1Cl"
reading = "0%"

[[record]]
molecule = "COc1ccc(Nc2nccc(N3CCC(NC(=O)Nc4cc(C)ccc4C)C3)n2)cc1 (stereo not drawn)"
reading = "0%"

[[record]]
molecule = "CN(C1=C(c2ccccc2)C(=O)NC1=O)c1ccccc1"
reading = "11%"


Which measured %Inh value corresponds to `Cc1cccc(Cn2ccn3c(=O)cc(N4CCOCC4)nc23)c1` ?
0%

Same lookup for `CC(C)Oc1ccc2c(-c3ccnc(Nc4ccc(N5CCN(C)CC5)cc4)n3)cnn2n1` , please.
31%

Same lookup for `Fc1ccc(-c2ncn(CCCN3CCOCC3)c2-c2ccccn2)cc1` , please.
10%

Same lookup for `Cc1ccc(NC(=O)c2ccnc(N3CCN(C)CC3)c2)cc1-c1ccc(C(=O)NCC2CC2)cc1` , please.
0%

Same lookup for `CN1c2ccc(NCc3ccc(F)cc3)cc2-c2c(cnn2C)S1(=O)=O` , please.
0%

====

Test system: CLK1
Details: concentration: 1 μM, replicates: in singlicate; n = 1
MEASURED PROPERTY: %Inh (%)
The reply should contain only the number, in %.

The following compounds have reported results that may help.
[[record]]
compound = "Cc1ccc(NC(=O)c2ccnc(N3CCN(C)CC3)c2)cc1-c1ccc(C(=O)NCC2CC2)cc1 [GW775604]"
reading = 0

[[record]]
compound = "Cc1cccc(Cn2ccn3c(=O)cc(N4CCOCC4)nc23)c1 [GSK2297542]"
reading = 50

[[record]]
compound = "O=C(NOCC1CC1)c1ccc(F)c(F)c1Nc1ccc(I)cc1Cl"
reading = 0

[[record]]
compound = "COc1ccc(Nc2nccc(N3CCC(NC(=O)Nc4cccc(C(C)=O)c4)C3)n2)cc1 (stereo not drawn) [GSK1379731]"
reading = 5

[[record]]
compound = "Cl.Nc1ncnc2occ(-c3ccc(NC(=O)Nc4cc(C(F)(F)F)ccc4F)cc3)c12 [SB-707548]"
reading = 69

[[record]]
compound = "CC(=O)Nc1ccc(COc2ccc(Nc3ccnc4cc(-c5ccccn5)ccc34)cc2)cc1.Cl [GW440148]"
reading = 35

[[record]]
compound = "Cc1cccc(-c2nc(Nc3ccc4ncsc4c3)c3ccccc3n2)n1 [GW867588]"
reading = 1

[[record]]
compound = "COc1ccc(CNC(=O)NC2CCN(c3ccnc(Nc4ccc(OC)cc4)n3)C2)cc1 (stereo not drawn) [GSK1379727]"
reading = 19


Which measured %Inh value corresponds to O=c1cc(N2CCOCC2)nc2n(Cc3cccc(Cl)c3Cl)c(C3CC3)nn12 [GSK2358994] ?
27

====

Recorded %Inh by entry
Tested on: NEK2
Details: concentration: 1 μM, replicates: in singlicate; n = 1
The reply should contain only the number, in %.

The following compounds have reported results that may help.
[[record]]
input_smiles = "COc1ccc(Nc2ncc(C#N)c(Nc3ccccc3C(N)=O)n2)cc1N1CCN(C)CC1.Cl"
measured_property = "%Inh"
reading = 99.6

[[record]]
input_smiles = "CCCCCc1nc2c(N)ncnc2n1CCCCC"
measured_property = "%Inh"
reading = 0


Which measured %Inh value corresponds to `CN(C1=C(c2ccccc2)C(=O)NC1=O)c1ccccc1` ?
0

Same lookup for `Cc1nnc(-c2ccc(C)c(-c3ccc(C(=O)Nc4ccc(NS(C)(=O)=O)cc4)cc3)c2)o1` , please.
0

Same lookup for `COc1cc2c(cc1OC[C@@H](O)CO)ncc1c3ccc(C#N)cc3[nH]c21` , please.
23

Same lookup for `Fc1ccc(-c2nn3c(OCC(F)(F)F)cccc3c2-c2ccncc2)cc1` , please.
8

Same lookup for `O=c1cc(N2CCOCC2)nc2n(Cc3cccc(Cl)c3Cl)c(C3CC3)nn12` , please.
7

Same lookup for `Cc1c2ccc(N(C)c3ccnc(Nc4cccc(S(N)(=O)=O)c4)n3)cc2nn1Cc1ccccc1.Cl.Cl` , please.
0

Same lookup for `O=C(NOCC1CC1)c1ccc(F)c(F)c1Nc1ccc(I)cc1Cl` , please.
0
